Sourced from patent US9518018B2

system: ORYSA: rice (Oryza sativa); test: Post-Emergent Test I herbicidal activity; type: in vivo; conditions: post-emergence, 336 h, Table 3, 70 g ai/ha, read-out: Visual Growth Reduction (%)-14 Days after Application ORYSA
outcome measure: pest or weed control at 70 g/ha

Entry "COc1c(C(=O)O)nc(-c2ccc(Br)c(F)c2F)c(F)c1N" : pest or weed control at 70 g/ha on ORYSA: rice (Oryza sativa) = 5%

Entry "COc1c(C(=O)O)nc(-c2cc(F)c(Br)cc2F)c(F)c1N" : pest or weed control at 70 g/ha on ORYSA: rice (Oryza sativa) = 5%

Entry "COC(=O)c1nc(-c2ccc(Br)c(F)c2F)c(F)c(N)c1OC" : pest or weed control at 70 g/ha on ORYSA: rice (Oryza sativa) = 0%

Entry "COC(=O)c1nc(-c2ccc(Br)c(F)c2)c(F)c(N)c1OC" : pest or weed control at 70 g/ha on ORYSA: rice (Oryza sativa) = 0%

Entry "COC(=O)c1nc(-c2ccc(Cl)c(OC)c2F)cc(N)c1OC" : pest or weed control at 70 g/ha on ORYSA: rice (Oryza sativa) = 0%

Entry "COc1c(C(=O)O)nc(Cl)c(F)c1N" : pest or weed control at 70 g/ha on ORYSA: rice (Oryza sativa) = 0%

###

Field: pest or weed control at 140 g/ha. Provide a value for each of the molecules that follow.
test system: ECHCG: barnyardgrass (Echinochloa crus-galli); experiment: Post-Emergent Test I herbicidal activity; assay type: in vivo; conditions: post-emergence, 336 h, Table 3, 140 g ai/ha, read-out: Visual Growth Reduction (%)-14 Days after Application ECHCG
Give the value in % but do not write % after it.

Entry COc1c(N)cc(C(C)F)nc1C(=O)O (centres unmarked) : pest or weed control at 140 g/ha on ECHCG: barnyardgrass (Echinochloa crus-galli) = 0

Entry "COC(=O)c1nc(-c2ccc(I)cc2F)c(F)c(N)c1OC" : pest or weed control at 140 g/ha on ECHCG: barnyardgrass (Echinochloa crus-galli) = 55

Entry "COC(=O)c1nc(-c2ccc(C3CC3)nc2)c(F)c(N)c1OC" : pest or weed control at 140 g/ha on ECHCG: barnyardgrass (Echinochloa crus-galli) = 0

Entry "COC(=O)c1nc(-c2ccc(Cl)cc2)cc(N(C)C)c1N" : pest or weed control at 140 g/ha on ECHCG: barnyardgrass (Echinochloa crus-galli) = 40

Entry "CSc1c(C(=O)O)nc(Cl)c(F)c1N" : pest or weed control at 140 g/ha on ECHCG: barnyardgrass (Echinochloa crus-galli) = 0

###

Test system: ECHCG: barnyardgrass (Echinochloa crus-galli)
Assay: Post-Emergent Test I herbicidal activity
Type: in vivo
Conditions: post-emergence, 336 h, Table 3, 140 g ai/ha, read-out: Visual Growth Reduction (%)-14 Days after Application ECHCG
Procedure: Seeds or nutlets of the desired test plant species were planted in Sun Gro Metro-Mix® 360 planting mixture, which typically has a pH of 6.0 to 6.8 and an organic matter content of about 30 percent, in plastic pots with a surface area of 64 square centimeters. […] A weighed amount, determined by the highest rate to be tested, of each test compound was placed in a 25 mL glass vial and was dissolved in 4 mL of a 97:3 v/v mixture of acetone and DMSO to obtain concentrated stock solutions. […]
Field: pest or weed control at 140 g/ha. Provide a value for each of the compounds that follow.
Give the value in % but do not write % after it.

"COC(=O)c1nc(-c2ccc(C(F)(F)F)cc2)c(F)c(N)c1OC" has a reported pest or weed control at 140 g/ha of 80

"COC(=O)c1nc(-c2ccc(Cl)cc2F)cc(N)c1OC" has a reported pest or weed control at 140 g/ha of 0

"COc1c(N)cc(C(C)(F)F)nc1C(=O)O" has a reported pest or weed control at 140 g/ha of 0

"COC(=O)c1nc(-c2ccc(Cl)c(N(C)C)c2F)c(F)c(N)c1OC" has a reported pest or weed control at 140 g/ha of 80

"COc1c(C(=O)O)nc(-c2ccc(Cl)cc2)c(F)c1N" has a reported pest or weed control at 140 g/ha of 100

"C#Cc1ccc(-c2nc(C(=O)OC)c(OC)c(N)c2F)cc1" has a reported pest or weed control at 140 g/ha of 0

"COC(=O)c1nc(-c2ccc(F)cc2)c(F)c(N)c1OC" has a reported pest or weed control at 140 g/ha of 0

"COc1c(C(=O)O)nc(-c2ccc(Cl)c(OC)c2F)c(F)c1N" has a reported pest or weed control at 140 g/ha of 100

COc1c(C(=O)O)nc(-c2ccc(Cl)c(C(C)F)c2F)c(F)c1N (centres unmarked) has a reported pest or weed control at 140 g/ha of 65

"COC(=O)c1nc(-c2ccc(Cl)cc2F)cc(NC(C)=O)c1OC" has a reported pest or weed control at 140 g/ha of 0

"COc1c(C(=O)O)nc(-c2ccc(Cl)c(F)c2)c(F)c1N" has a reported pest or weed control at 140 g/ha of 100
